assay: qHTS Assay for Lipid Storage Modulators (AID 1519); conditions: Drosophila S3 cells, BODIPY lipid droplet/cell ratio, laser cytometry; measured here: lipid channel max response; cells loaded with oleic acid
Records with an inconclusive call do not appear.
metric: max response (%)
Answers are plain numbers, in %.

compound | readoutUnit | max response
CC1=C2[C@@H]3OC(=O)[C@@H](C)[C@@H]3CC[C@]2(C)C=CC1=O | % | -3.78
CN1CCCC2(CCN(C(=O)c3csnn3)CC2)C1 | % | -6.49
COC(=O)N1CCC2(CCCN(C)C2)CC1 | % | 8.69
COc1cc(C(=O)OC2C[C@H]3CC[C@@H](C2)N3C)ccc1O (some centres undefined) | % | -27.3

Parameter requested: max response. Apply to each item below.
1. CCc1cccc(C)c1N(C(=O)CCl)C(C)COC (centres undefined)
2. CC(C)C[C@H]1C(=O)N2CCC[C@@H]2[C@@]2(O)O[C@](NC(=O)[C@@H]3C=C4c5cccc6[nH]cc(c56)C[C@@H]4N(C)C3)(C(C)C)C(=O)N12
3. O=C1C=CC(=O)c2c(O)cccc21
4. C[C@]12CCC3C(C=CC4=CC(=O)CC[C@]43C)C1CC[C@]2(O)CCC(=O)O (some centres undefined)
5. COc1cc([C@H]2c3cc4c(cc3[C@@H](O)[C@@H]3COC(=O)[C@H]23)OCO4)cc(OC)c1OC
6. COC1C(O)C(OC2CC[C@]3(C=O)C4C(OC(C)=O)C[C@@]5(C)C(C6=CC(=O)OC6)CC[C@]5(O)C4CC[C@]3(O)C2)OC(C)C1OC(C)=O (some centres undefined)
7. CC(=O)OC1C2C(OC(=O)Cc3ccccc3)C(C)CC2(OC(C)=O)C(=O)/C(C)=C/C2C(CC[C@@]13CO3)C2(C)C (some centres undefined)
8. O=C(Oc1ccccc1)N1CCC2(CC1)CN(C(c1ccccc1)c1ccccc1)C2

1. 4.99
2. -4.79
3. -1.73
4. 34.1
5. -15
6. 17.4
7. -2.51
8. -5.43

----------
experiment: Primary qHTS to identify inhibitors of SARS-CoV-2 cell entry (AID 1645846); conditions: SARS-CoV-2 pseudovirus cell entry assay, luminescence; note: nearly all actives have a fitted effect of over 45% in size
Records with an inconclusive call do not appear. Active and inactive are the calls of the source. Calls come from the whole dose curve.
Give one outcome, nothing more. List: 1 (yes) (active), 0 (no) (inactive)

Please review the following examples before continuing.
cpdSmiles | discreteLabel
NC(=O)c1ccccc1Nc1ccnc(Nc2cccc(O)c2)n1 | 1 (yes)
O=C(O)CCC/C=C\C[C@@H]1[C@@H](/C=C/[C@@H](O)COc2cccc(Cl)c2)[C@H](O)C[C@@H]1O | 0 (no)
C=CCN(/C=C1\C(=O)O[C@@H](COC)[C@]2(C)C1=C(O)C(=O)C1=C2[C@@H](OC(C)=O)C[C@]2(C)C(=O)CC[C@H]12)CC=C | 0 (no)

Okay, now this molecule:
Status in this test for CC(C)c1nc(N(C)S(C)(=O)=O)nc(-c2ccc(F)cc2)c1/C=C/[C@@H](O)C[C@@H](O)CC(=O)O ?
0 (no)

----------
assay: qHTS Assay for Lipid Storage Modulators (AID 1519); conditions: Drosophila S3 cells, BODIPY lipid droplet/cell ratio, laser cytometry; measured here: lipid channel max response; cells loaded with oleic acid
Records with an inconclusive call do not appear.
Decide using max response alone. Strictly below 20%: 1. Equal to or above 20%: 0.

Please review the following examples before continuing.
compound | discreteLabel
C=C[C@H]1CN2CCC1C[C@@H]2C(O)c1ccnc2ccccc12 (stereo not given in full) | 0
C[C@@]12CC(=O)[C@H]3[C@@H](CCC4=CC(=O)CC[C@]43C)[C@H]1CCC2=O | 1
CC(=O)OC1CC(OC(C)=O)[C@]2(C)C(CC(OC(C)=O)[C@]3(C)C2CC[C@@]2(C)C(c4ccoc4)C(=O)C4O[C@]432)C1(C)C (stereo not given in full) | 1

Confirm or reject: max response of N#Cc1c(Cl)cccc1Cl lies strictly below 20%
1

Confirm or reject: max response of CCC(=O)Nc1ccc(Cl)c(Cl)c1 lies strictly below 20%
0
